Measured values drawn from patent US20250176599A1 for this set.

assay: Sensory evaluation of aqueous solution II containing (E)-2-octenal 10 ppb: off-flavor intensity and masking component intensity; conditions: 100 ppb added, average panel score
Consider the following molecules; for each one, report its Masking Component Intensity.

Exercise: Param item = CC(C)C=C(C=O)c1ccccc1 ; retrieve measured Masking Component Intensity.
Key: 1.6

Exercise: Param item = C=CC(C)(O)CCC=C(C)CCC=C(C)C (stereo not drawn) ; retrieve measured Masking Component Intensity.
Key: 1.5

Exercise: Param item = CC1CCC(C(C)C)C(OCCO)C1 (stereo not drawn) ; retrieve measured Masking Component Intensity.
Key: 1.6

Exercise: Param item = CC1CCC(C(C)C)C(OCC(O)CO)C1 (stereo not drawn) ; retrieve measured Masking Component Intensity.
Key: 1.0

Exercise: Param item = CC(=O)/C(C)=C/C1C(C)=CCCC1(C)C (stereo not drawn) ; retrieve measured Masking Component Intensity.
Key: 3.8

Exercise: Param item = CC(O)CC(=O)OC1CC(C)CCC1C(C)C (stereo not drawn) [menthyl 3-hydroxybutyrate] ; retrieve measured Masking Component Intensity.
Key: 1.4

###

assay: Sensory evaluation of aqueous solution I containing (E)-2-nonenal 1 ppb: off-flavor intensity and masking component intensity; conditions: 100 ppt added, average panel score
PROPERTY NAME: Off-Flavor Intensity
Output: the number by itself.

Exercise: Param item = CC(O)CC(=O)OC1CC(C)CCC1C(C)C (stereo not drawn) [menthyl 3-hydroxybutyrate] ; retrieve measured Off-Flavor Intensity.
Key: 3.4

Exercise: Param item = C=CC(C)(O)CCC=C(C)CCC=C(C)C (stereo not drawn) [nerolidol] ; retrieve measured Off-Flavor Intensity.
Key: 3.3

Exercise: Param item = CC(=O)/C(C)=C/C1C(C)=CCCC1(C)C (stereo not drawn) [γ-methyl ionone] ; retrieve measured Off-Flavor Intensity.
Key: 2.4

Exercise: Param item = CC(C)C=C(C=O)c1ccccc1 [4-methyl-2-phenyl-2-pentenal] ; retrieve measured Off-Flavor Intensity.
Key: 3.3

Exercise: Param item = CC1CCC(C(C)C)C(OCCO)C1 (stereo not drawn) [2-menthoxyethanol] ; retrieve measured Off-Flavor Intensity.
Key: 3.8

Exercise: Param item = CC1CCC(C(C)C)C(OCC(O)CO)C1 (stereo not drawn) [3-menthoxypropan-1,2-diol] ; retrieve measured Off-Flavor Intensity.
Key: 3.4

###

test: Sensory evaluation of aqueous solution II containing (E)-2-octenal 10 ppb: off-flavor intensity and masking component intensity; conditions: 100 ppt added, average panel score
Consider the following compounds; for each one, report its Off-Flavor Intensity.
Output: the number by itself.

Exercise: Param item = CC1CCC(C(C)C)C(OCC(O)CO)C1 (stereo not drawn) ; retrieve measured Off-Flavor Intensity.
Key: 3.1

Exercise: Param item = CC(O)CC(=O)OC1CC(C)CCC1C(C)C (stereo not drawn) [menthyl 3-hydroxybutyrate] ; retrieve measured Off-Flavor Intensity.
Key: 3.4

Exercise: Param item = CC(=O)/C(C)=C/C1C(C)=CCCC1(C)C (stereo not drawn) ; retrieve measured Off-Flavor Intensity.
Key: 2.0

Exercise: Param item = CC1CCC(C(C)C)C(OCCO)C1 (stereo not drawn) ; retrieve measured Off-Flavor Intensity.
Key: 3.4

Exercise: Param item = CC(C)C=C(C=O)c1ccccc1 ; retrieve measured Off-Flavor Intensity.
Key: 3.0

Exercise: Param item = C=CC(C)(O)CCC=C(C)CCC=C(C)C (stereo not drawn) ; retrieve measured Off-Flavor Intensity.
Key: 3.0
